Data provenance is patent US20120083522A1.

Recorded Bilirubin by entry
- test_details: Tolerability in CD1 mice: liver function (Example 21)
- Type: in vivo
- assay_context: plasma, 50 mg/kg s.c. twice per week for 6 weeks

{"monomer_sequence": "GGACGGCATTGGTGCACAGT (antisense; all C 5-methyl, all phosphorothioate, sugars by position not given here; MOE gapmer, 5-10-5) [ISIS 413482, 5-10-5 MOE gapmer]", "Bilirubin, mg/dL": 0.24}
{"monomer_sequence": "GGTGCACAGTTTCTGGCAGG (all C 5-methyl, all phosphorothioate, sugars by position not given here; MOE gapmer) [ISIS 413481, 5-10-5 MOE gapmer]", "Bilirubin, mg/dL": 0.18}
{"monomer_sequence": "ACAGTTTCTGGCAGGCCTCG (antisense; all C 5-methyl, all phosphorothioate, sugars by position not given here; MOE gapmer, 5-10-5) [ISIS 412223, 5-10-5 MOE gapmer]", "Bilirubin, mg/dL": 0.20}
{"monomer_sequence": "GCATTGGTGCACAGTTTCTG (antisense; all C 5-methyl, all phosphorothioate, sugars by position not given here; MOE gapmer, 5-10-5) [ISIS 412224, 5-10-5 MOE gapmer]", "Bilirubin, mg/dL": 0.19}
{"monomer_sequence": "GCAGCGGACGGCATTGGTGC (antisense; all C 5-methyl, all phosphorothioate, sugars by position not given here; MOE gapmer, 5-10-5) [ISIS 412225, 5-10-5 MOE gapmer]", "Bilirubin, mg/dL": 0.23}

---

Recorded percent inhibition of Factor XI by entry
- Tested on: human Factor XI mRNA
- test_details: Dose-dependent antisense inhibition in HepG2 cells, lipofectin (Example 2)
- Format: cell-based
- assay_context: 9.375 nM, approximately 16 hours
In the oligonucleotide strings, read from the 5' end, every base follows the letter of its sugar. An asterisk marks phosphorothioate; unmarked linkages are phosphodiester. Other units and linkages are bracketed, terminal groups are in braces. A string of capitals states the bases alone. e = 2'-O-(2-methoxyethyl) (MOE); [5mC] = 5-methylcytosine; d = 2'-deoxy (DNA)

{"substance": "412212 (antisense e[5mC]*e[5mC]*eG*eG*eG*dA*dT*dG*dA*dT*dG*dA*dG*dT*dG*e[5mC]*eA*eG*eA*eT) [compound 412212]", "percent inhibition of Factor XI": "28%"}
{"substance": "412206 (antisense e[5mC]*e[5mC]*eG*eT*eG*d[5mC]*dA*dT*d[5mC]*dT*dT*dT*d[5mC]*dT*dT*eG*eG*e[5mC]*eA*eT) [compound 412206]", "percent inhibition of Factor XI": "28%"}
{"substance": "413469 (antisense eT*eG*e[5mC]*e[5mC]*e[5mC]*dT*dT*d[5mC]*dA*dT*dG*dT*d[5mC]*dT*dA*eG*eG*eT*e[5mC]*e[5mC]) [compound 413469]", "percent inhibition of Factor XI": "24%"}

---

- Test system: Factor XI protein
- test_details: Cynomolgus monkeys: plasma Factor XI protein ELISA (Example 29)
- Format: in vivo
- assay_context: escalating doses 5, 10, 25 mg/kg s.c., day 71
- Description: Groups, each consisting of two male and three female monkeys, were injected subcutaneously with ISIS 416838, ISIS 416850, ISIS 416858, ISIS 416864, or ISIS 417002 in escalating doses. […] Body weights were measured weekly. […] The results are presented in Table 122, expressed as percentage reduction relative to that of the PBS control.
In the oligonucleotide strings, read from the 5' end, every base follows the letter of its sugar. An asterisk marks phosphorothioate; unmarked linkages are phosphodiester. Other units and linkages are bracketed, terminal groups are in braces. A string of capitals states the bases alone. e = 2'-O-(2-methoxyethyl) (MOE); [5mC] = 5-methylcytosine; d = 2'-deoxy (DNA)
Recorded Inhibition of Factor XI protein relative to the PBS control by entry
property_measured: Inhibition of Factor XI protein relative to the PBS control (%)

{"substance": "ISIS 416864: gapmer of Table 8 (antisense eG*eG*e[5mC]*eA*eG*d[5mC]*dG*dG*dA*d[5mC]*dG*dG*d[5mC]*dA*dT*eT*eG*eG*eT*eG)", "measurement_target": "Factor XI protein", "unit_abbreviation": "%", "assay_value": 10}
{"substance": "ISIS 417002: gapmer of Table 8 (antisense eG*eG*dT*dG*d[5mC]*dA*d[5mC]*dA*dG*dT*dT*dT*d[5mC]*dT*dG*eG*e[5mC]*eA*eG*eG)", "measurement_target": "Factor XI protein", "unit_abbreviation": "%", "assay_value": 30}
{"substance": "ISIS 416858: gapmer of Table 8 (antisense eA*e[5mC]*eG*eG*e[5mC]*dA*dT*dT*dG*dG*dT*dG*d[5mC]*dA*d[5mC]*eA*eG*eT*eT*eT)", "measurement_target": "Factor XI protein", "unit_abbreviation": "%", "assay_value": 71}
{"substance": "ISIS 416838: gapmer of Table 6 (antisense eG*e[5mC]*eA*eA*e[5mC]*d[5mC]*dG*dG*dG*dA*dT*dG*dA*dT*dG*eA*eG*eT*eG*e[5mC])", "measurement_target": "Factor XI protein", "unit_abbreviation": "%", "assay_value": 12}
{"substance": "ISIS 416850: gapmer of Table 8 (antisense eT*eG*e[5mC]*eA*e[5mC]*dA*dG*dT*dT*dT*d[5mC]*dT*dG*dG*d[5mC]*eA*eG*eG*e[5mC]*e[5mC])", "measurement_target": "Factor XI protein", "unit_abbreviation": "%", "assay_value": 57}

---

Recorded platelet count by entry
- test_details: Cynomolgus monkeys: hematology assays (Example 29)
- Type: in vivo
- assay_context: day 8
In the oligonucleotide strings, read from the 5' end, every base follows the letter of its sugar. An asterisk marks phosphorothioate; unmarked linkages are phosphodiester. Other units and linkages are bracketed, terminal groups are in braces. A string of capitals states the bases alone. e = 2'-O-(2-methoxyethyl) (MOE); [5mC] = 5-methylcytosine; d = 2'-deoxy (DNA)

{"substance": "ISIS 416838: gapmer of Table 6 (antisense eG*e[5mC]*eA*eA*e[5mC]*d[5mC]*dG*dG*dG*dA*dT*dG*dA*dT*dG*eA*eG*eT*eG*e[5mC])", "platelet count / µL⁻¹": 387000}
{"substance": "ISIS 417002: gapmer of Table 8 (antisense eG*eG*dT*dG*d[5mC]*dA*d[5mC]*dA*dG*dT*dT*dT*d[5mC]*dT*dG*eG*e[5mC]*eA*eG*eG)", "platelet count / µL⁻¹": 435000}
{"substance": "ISIS 416858: gapmer of Table 8 (antisense eA*e[5mC]*eG*eG*e[5mC]*dA*dT*dT*dG*dG*dT*dG*d[5mC]*dA*d[5mC]*eA*eG*eT*eT*eT)", "platelet count / µL⁻¹": 391000}
{"substance": "ISIS 416850: gapmer of Table 8 (antisense eT*eG*e[5mC]*eA*e[5mC]*dA*dG*dT*dT*dT*d[5mC]*dT*dG*dG*d[5mC]*eA*eG*eG*e[5mC]*e[5mC])", "platelet count / µL⁻¹": 548000}
{"substance": "ISIS 416864: gapmer of Table 8 (antisense eG*eG*e[5mC]*eA*eG*d[5mC]*dG*dG*dA*d[5mC]*dG*dG*d[5mC]*dA*dT*eT*eG*eG*eT*eG)", "platelet count / µL⁻¹": 438000}

---

- test_details: Tolerability in CD1 mice: hematology assays (Example 21)
- Assay type: in vivo
- assay_context: 50 mg/kg s.c. twice per week for 6 weeks

{"monomer_sequence": "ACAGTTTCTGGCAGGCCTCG (antisense; all C 5-methyl, all phosphorothioate, sugars by position not given here; MOE gapmer, 5-10-5) [ISIS 412223, 5-10-5 MOE gapmer]", "Hemoglobin": "15 g/dL"}
{"monomer_sequence": "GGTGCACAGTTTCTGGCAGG (all C 5-methyl, all phosphorothioate, sugars by position not given here; MOE gapmer) [ISIS 413481, 5-10-5 MOE gapmer]", "Hemoglobin": "13 g/dL"}
{"monomer_sequence": "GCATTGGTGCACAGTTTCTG (antisense; all C 5-methyl, all phosphorothioate, sugars by position not given here; MOE gapmer, 5-10-5) [ISIS 412224, 5-10-5 MOE gapmer]", "Hemoglobin": "15 g/dL"}
{"monomer_sequence": "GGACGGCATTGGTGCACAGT (antisense; all C 5-methyl, all phosphorothioate, sugars by position not given here; MOE gapmer, 5-10-5) [ISIS 413482, 5-10-5 MOE gapmer]", "Hemoglobin": "15 g/dL"}
{"monomer_sequence": "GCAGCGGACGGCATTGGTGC (antisense; all C 5-methyl, all phosphorothioate, sugars by position not given here; MOE gapmer, 5-10-5) [ISIS 412225, 5-10-5 MOE gapmer]", "Hemoglobin": "15 g/dL"}

---

Recorded percent inhibition of human Factor XI mRNA by entry
- Tested on: human Factor XI mRNA
- test_details: Dose-dependent inhibition in cyno primary hepatocytes, electroporation (Example 6)
- Format: cell-based, cynomolgus monkey
- assay_context: 0.74 nM, approx. 16 h
property_measured: percent inhibition of human Factor XI mRNA (%)

{"substance": "416858 (antisense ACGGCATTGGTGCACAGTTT; 5-10-5 gapmer, wing sugar chemistry not given here, further chemistry not given here) [compound 416858]", "unit_abbreviation": "%", "assay_value": 2}
{"substance": "416826 (antisense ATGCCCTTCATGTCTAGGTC; 5-10-5 gapmer, wing sugar chemistry not given here, further chemistry not given here) [compound 416826]", "unit_abbreviation": "%", "assay_value": 13}
{"substance": "416850 (antisense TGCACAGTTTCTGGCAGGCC; 5-10-5 gapmer, wing sugar chemistry not given here, further chemistry not given here) [compound 416850]", "unit_abbreviation": "%", "assay_value": 2}
{"substance": "416892 (antisense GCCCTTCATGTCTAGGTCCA; 3-14-3 chimeric gapmer, wing sugar chemistry not given here, further chemistry not given here) [compound 416892]", "unit_abbreviation": "%", "assay_value": 20}
{"substance": "416925 (antisense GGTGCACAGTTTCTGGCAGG; 3-14-3 chimeric gapmer, wing sugar chemistry not given here, further chemistry not given here) [compound 416925]", "unit_abbreviation": "%", "assay_value": 0}
{"substance": "416999 (antisense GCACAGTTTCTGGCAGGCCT; 2-13-5 gapmer, wing sugar chemistry not given here, further chemistry not given here) [compound 416999]", "unit_abbreviation": "%", "assay_value": 3}
{"substance": "417002 (antisense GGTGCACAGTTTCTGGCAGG; 2-13-5 gapmer, wing sugar chemistry not given here, further chemistry not given here) [compound 417002]", "unit_abbreviation": "%", "assay_value": 32}
{"substance": "416838 (antisense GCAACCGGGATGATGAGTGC; 5-10-5 gapmer, wing sugar chemistry not given here, further chemistry not given here) [compound 416838]", "unit_abbreviation": "%", "assay_value": 0}
{"substance": "416864 (antisense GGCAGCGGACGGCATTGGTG; 5-10-5 gapmer, wing sugar chemistry not given here, further chemistry not given here) [compound 416864]", "unit_abbreviation": "%", "assay_value": 0}
{"substance": "416825 (antisense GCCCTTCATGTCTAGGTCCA; 5-10-5 gapmer, wing sugar chemistry not given here, further chemistry not given here) [compound 416825]", "unit_abbreviation": "%", "assay_value": 5}
{"substance": "417003 (antisense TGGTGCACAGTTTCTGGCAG; 2-13-5 gapmer, wing sugar chemistry not given here, further chemistry not given here) [compound 417003]", "unit_abbreviation": "%", "assay_value": 12}
